- Measurement Target: Aromatase (Homo sapiens)
I'd be grateful if you could share measured Ki for these entries.
Respond with the bare value in nM.

Task: Sample C[C@]12C=C(CCCc3ccccc3)C(=O)C=C1CC[C@@H]1[C@@H]2CC[C@]2(C)C(=O)CC[C@@H]12 — what was its Ki?
Output: 16.1

Task: I am curious: what Ki value has been reported for CC1(C)C[C@@]2(C)C(=CC1=O)[C@H](Br)C[C@@H]1[C@@H]2CC[C@]2(C)C(=O)CC[C@@H]12 ?
Output: 10

Task: Which value of Ki has been reported for C[C@]12CCC(=O)C(c3ccc(OS(N)(=O)=O)cc3)=C1CC[C@@H]1[C@@H]2CC[C@]2(C)C(=O)CC[C@@H]12 in the records?
Output: 97

Task: Requested field: Ki. Item: CC1=C[C@@]2(C)C(=CC1=O)CC[C@@H]1[C@@H]2CC[C@]2(C)C(=O)CC[C@@H]12
Output: 46

---

Task for the reader: assign each of the following compounds its reported pKi.
- Measurement Target: Aromatase (Homo sapiens, UniProt P11511)
- Sequence (P11511 whole entry): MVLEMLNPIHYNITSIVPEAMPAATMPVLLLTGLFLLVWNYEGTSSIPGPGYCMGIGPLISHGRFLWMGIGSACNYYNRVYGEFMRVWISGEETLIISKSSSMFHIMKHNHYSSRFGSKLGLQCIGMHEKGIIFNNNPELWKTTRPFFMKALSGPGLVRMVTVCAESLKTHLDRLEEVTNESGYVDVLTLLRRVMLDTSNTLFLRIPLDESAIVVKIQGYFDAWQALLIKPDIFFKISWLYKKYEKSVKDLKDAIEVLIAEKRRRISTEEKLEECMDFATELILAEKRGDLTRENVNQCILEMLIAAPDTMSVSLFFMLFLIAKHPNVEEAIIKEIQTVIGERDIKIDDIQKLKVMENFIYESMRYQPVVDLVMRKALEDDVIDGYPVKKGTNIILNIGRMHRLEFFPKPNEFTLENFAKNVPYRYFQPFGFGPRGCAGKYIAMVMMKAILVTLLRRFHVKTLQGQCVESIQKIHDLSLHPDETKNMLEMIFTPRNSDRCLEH
- Run Description: Competitive inhibition of human aromatase extracted from placental microsomes by Dixon plot analysis in presence of [1beta-3H]androstenedione
- Condition Details: read-out: Ki(app)
Note: pKi values are expressed as the negative base-10 logarithm of concentration in M.

Task: May I ask what pKi has been recorded for CC(=O)O[C@]12CCCCC1=CC(=O)[C@H]1[C@@H]3CCC(=O)[C@@]3(C)CC[C@@H]12 ?
Output: 5.96

Task: What value of pKi has been recorded for this entry: CC[C@@H]1C[C@@H]2[C@H](CC[C@]3(C)C(=O)CC[C@@H]23)[C@@]2(C)C=CC(=O)C=C12
Output: 8.33

Task: Quick one: pKi of CCCCC[C@@H]1C[C@@H]2[C@H](CC[C@]3(C)C(=O)CC[C@@H]23)[C@@]2(C)C=CC(=O)C=C12 ?
Output: 8.30

Task: Sample C[C@]12CC[C@H]3[C@@H](C(=O)C=C4CCCC[C@@]43O)[C@@H]1CCC2=O — what was its pKi?
Output: 5.96

---

Task for the reader: assign each of the following compounds its reported Ki.
Your answer should be a plain number; it is taken to be in nM.

Task: Short answer please: Ki, Aromatase (Homo sapiens, UniProt P11511), entry C[C@]12CC[C@@H]3c4ccc(O)cc4[C@H](CCCc4ccccc4)C[C@H]3[C@@H]1CCC2=O
Output: 100

Task: Notebook: pull reported Ki for Aromatase (Homo sapiens, UniProt P11511), entry CC1=C[C@@]2(C)C(=CC1=O)[C@@H](Br)C[C@@H]1[C@@H]2CC[C@]2(C)C(=O)CC[C@@H]12
Output: 81

Task: Item: CCCCC[C@@H]1C[C@@H]2[C@H](CC[C@]3(C)C(=O)CC[C@@H]23)[C@@]2(C)CCC(=O)C=C12 Test system: Aromatase (Homo sapiens, UniProt P11511) Read-out: Ki Value: ?
Output: 2.8

Task: Item: C[C@]12C=CC(=O)C=C1C(c1ccc(OS(N)(=O)=O)cc1)=C[C@@H]1[C@@H]2CC[C@]2(C)C(=O)CC[C@@H]12 Test system: Aromatase (Homo sapiens, UniProt P11511) Read-out: Ki Value: ?
Output: 56

---

- Measurement Target: Aromatase (Homo sapiens)
- Run Description: Inhibition of human aromatase extracted from placental microsomes using [1,2-3H]androstenedione as substrate after 30 mins by scintillation counting analysis
So I've got a bunch of compounds here, and I need their IC50 values.

Task: Can you look up IC50 on Aromatase (Homo sapiens) for C[C@]12CCC(=O)C(Oc3ccccc3)=C1C[C@@H](Sc1ccccc1)[C@@H]1[C@@H]2CC[C@]2(C)C(=O)CC[C@@H]12 ?
Output: 1650 nM

Task: Identify the measured IC50 of C[C@]12CCC(=O)C(Oc3ccccc3)=C1CC[C@@H]1[C@@H]2CC[C@]2(C)C(=O)CC[C@@H]12 for Aromatase (Homo sapiens).
Output: 530 nM

Task: Query for Aromatase (Homo sapiens): what IC50 does the record show for C[C@]12CCC(=O)C(Sc3ccccc3)=C1CC[C@@H]1[C@@H]2CC[C@]2(C)C(=O)CC[C@@H]12 ?
Output: 190 nM

---

Field: pKi. Provide a value for each of the compounds that follow.
- Measurement Target: Aromatase (Homo sapiens, UniProt P11511)
- Run Description: Competitive inhibition of human aromatase extracted from placental microsomes by Dixon plot analysis in presence of [1beta-3H]AD
- Condition Details: read-out: Ki
Expect pKi as a plain number equal to -log10 of the molar concentration.

Task: Requested read-out pKi, target or system Aromatase (Homo sapiens, UniProt P11511), entry CO[C@@H]1C[C@@]2(C)C(=CC1=O)CC[C@@H]1[C@@H]2CC[C@]2(C)C(=O)CC[C@@H]12
Output: 6.17

Task: For Aromatase (Homo sapiens, UniProt P11511), provide pKi of C[C@H]1C[C@@]2(C)C(=CC1=O)CC[C@@H]1[C@@H]2CC[C@]2(C)C(=O)CC[C@@H]12 please.
Output: 7.66

Task: Param readout= pKi; system= Aromatase (Homo sapiens, UniProt P11511); entry= C[C@@H]1C[C@@]2(C)C(=CC1=O)CC[C@@H]1[C@@H]2CC[C@]2(C)C(=O)CC[C@@H]12 ; returns value.
Output: 7.26

Task: Fill in the recorded pKi for this compound, with Aromatase (Homo sapiens, UniProt P11511) as test system: C[C@]12CCC(=O)C=C1C(=O)C[C@@H]1[C@@H]2CC[C@]2(C)C(=O)[C@H](O)C[C@@H]12
Output: 5.93

---

- Measurement Target: Aromatase (Homo sapiens, UniProt P11511)
- Run Description: Inhibition of human aromatase extracted from placental microsomes
Property Label: IC50

Task: Look up IC50 for this molecule: C[C@]12CC[C@H]3[C@@H](Cc4nn(Cc5ccccc5)c5c4[C@]3(C)CCC5=O)[C@@H]1CC[C@@H]2O
Output: 245 nM

Task: What value of IC50 has been recorded for this entry: C[C@]12CC[C@H]3[C@@H](Cc4n[nH]c5c4[C@]3(C)CCC5=O)[C@@H]1CC[C@@H]2O
Output: 236 nM

---

Provide the reported IC50 of each item.
- Measurement Target: Aromatase (Homo sapiens, UniProt P11511)
- Run Description: Inhibition of aromatase (unknown origin)
Hi! Could you send only the number? It should be in µM, unit omitted.

Task: What does the data say about its IC50? Entry: CC(=O)O[C@H]1[C@@H]2[C@H](CC[C@]3(C)C(=O)CC[C@@H]23)[C@@]2(C)CCC(=O)C=C2[C@@H]1N=[N+]=[N-]
Output: 0.4

Task: What does the data say about its IC50? Entry: COC(=O)C1=C(C)NC(C)=C(C(=O)OC)C1C[C@H]1C[C@@H]2[C@H](CC[C@]3(C)C(=O)CC[C@@H]23)[C@@]2(C)C=CC(=O)C=C12
Output: 10
